# TARGET UNDER TEST: Human immunodeficiency virus type 1 reverse transcriptase (Human immunodeficiency virus 1, UniProt Q72547)
OBSERVED PROPERTY: IC50 (nM)
Please respond with the number in nM and leave the unit unwritten.

The reported value for Cc1sc2nc(-c3cc(O)c(O)cc3O)[nH]c(=O)c2c1C in terms of IC50 is 1600

Field IC50 (entry Cc1sc2nc(-c3ccc(O)cc3)[nH]c(=O)c2c1C ) reads 790

The compound Cc1sc2nc(-c3ccc(C(F)(F)F)cc3)[nH]c(=O)c2c1C showed IC50 equal to 1300

Documented IC50 of Cc1sc2nc(-c3cc(O)ccc3O)[nH]c(=O)c2c1C : 9300

Lookup result for CCCc1c(C)sc2nc(-c3ccc(O)c(O)c3)[nH]c(=O)c12 ; measured IC50: 490

The reported value for COc1ccc(-c2nc3sc(C)c(C)c3c(=O)[nH]2)cc1OC in terms of IC50 is 12600

Reported IC50 of Cc1sc2nc(-c3cc(O)c(O)c(O)c3)[nH]c(=O)c2c1C : 690

Short answer for Cc1sc2nc(-c3ccc(C(=O)O)cc3)[nH]c(=O)c2c1C : IC50 was 1600

The compound listed as COc1ccc(-c2nc3sc(C)c(C)c3c(=O)[nH]2)cc1 has a reported IC50 of 9100

Per the records, this compound ( O=c1[nH]c(-c2cc(O)cc(O)c2)nc2sc3c(c12)CCCCC3 ) has IC50 equal to 2600

According to the records, this compound Cc1sc2nc(-c3ccc(O)c(O)c3)[nH]c(=O)c2c1C displays IC50 of 260

Lab note: Cc1sc2nc(-c3ccc(Cl)c([N+](=O)[O-])c3)[nH]c(=O)c2c1C gave IC50 of 12000

Quick note, IC50 for O=c1[nH]c(-c2ccc(C(F)(F)F)cc2)nc2sc3c(c12)CCCCC3 landed at 3100

# IC50 (compound: O=c1[nH]c(-c2ccccc2)nc2sc3c(c12)CCCCC3 ) is 4100

get_value(item= O=c1[nH]c(-c2ccc(O)c(O)c2)nc2sc3c(c12)CCCCC3 , readout=IC50) returns 290

IC50 measured on Cc1sc2nc(-c3ccccn3)[nH]c(=O)c2c1C = 4200

Given item CCCc1c(C)sc2nc(-c3cccc(O)c3O)[nH]c(=O)c12 , the value recorded as its IC50 is 1700

The value of IC50 measured for the compound O=c1[nH]c(-c2ccc(O)c(O)c2)nc2sc3c(c12)CCCCCC3 turned out to be 260

Quick note, IC50 for Cc1sc2nc(-c3cccc([N+](=O)[O-])c3)[nH]c(=O)c2c1C landed at 1500

Looking up O=C(O)c1ccc(-c2nc3sc4c(c3c(=O)[nH]2)CCCCC4)cc1 , I see its IC50 listed as 1900

Measured IC50 of O=c1[nH]c(-c2cccc(O)c2O)nc2sc3c(c12)CCCCC3 : 1800

Query O=c1[nH]c(-c2cc(O)ccc2O)nc2sc3c(c12)CCCCC3 yields IC50 of 1700

Measured IC50 of O=c1[nH]c(-c2ccc(O)c(O)c2)nc2sc3c(c12)CCC3 : 320

* * *

# ASSAY INFO: Inhibition of RNase H activity of HIV-1 reverse transcriptase p66/p51 C280A mutant using 18 nucleotide 3'-fluorescein-labeled RNA/18 nucleotide 5'-dabsyl-labeled DNA hybrid as substrate after 10 mins by fluorescence spectrometric analysis
# Design: species or system Human immunodeficiency virus 1
OBSERVED PROPERTY: IC50 (nM)
Report the value in nM with no unit label.

Summary for this compound, O=c1[nH]c(-c2ccc(O)c(O)c2)nc2sc3c(c12)CCCC3 : IC50 is 290

Entry CCCc1c(CC)sc2nc(-c3ccc(O)c(O)c3)[nH]c(=O)c12 , IC50 reported as 500

The reported value for CCCc1c(C)sc2nc(-c3ccc(O)c(O)c3)[nH]c(=O)c12 in terms of IC50 is 370

In plain terms, O=c1[nH]c(-c2ccccc2)nc2sc3c(c12)CCCCC3 has a documented IC50 of 41400

Lab book: IC50 of O=c1[nH]c(-c2cccc(O)c2O)nc2sc3c(c12)CCCCC3 noted as 1600

Lookup result for O=c1[nH]c(-c2ccc(O)c(O)c2)nc2sc3c(c12)CCCCCC3 ; measured IC50: 230

The compound listed as CCCCc1c(C)sc2nc(-c3ccc(O)c(O)c3)[nH]c(=O)c12 has a reported IC50 of 490

Record summary for O=c1[nH]c(-c2ccc(O)cc2)nc2sc3c(c12)CCCCC3 : reported IC50 = 15800

* * *

# ASSAY INFO: Inhibition of RNase H activity of HIV-1 reverse transcriptase p66/p51 R284A mutant using 18 nucleotide 3'-fluorescein-labeled RNA/18 nucleotide 5'-dabsyl-labeled DNA hybrid as substrate after 10 mins by fluorescence spectrometric analysis
# Set-up: species or system Human immunodeficiency virus 1
Could you please report measured pIC50 for the items listed next?
// pIC50 is dimensionless: -log10 of concentration (M)

Recorded result, O=c1[nH]c(-c2ccc(O)c(O)c2)nc2sc3c(c12)CCC3 , pIC50: 6.33

Value of measured pIC50 for the entry CCCc1c(C)sc2nc(-c3ccc(O)c(O)c3)[nH]c(=O)c12 : 6.10

Form field pIC50, entry Cc1sc2nc(-c3cc4ccccc4[nH]3)[nH]c(=O)c2c1C : 6.92

pIC50 reported for this molecule Cc1sc2nc(-c3ccc(C(F)(F)F)cc3)[nH]c(=O)c2c1C : 6.64

Data point: CCCCc1c(C)sc2nc(-c3ccc(O)c(O)c3)[nH]c(=O)c12 ; pIC50 = 5.92

The value of pIC50 measured for the molecule O=c1[nH]c(-c2ccc(O)cc2)nc2sc3c(c12)CCCCC3 turned out to be 6.19

* * *

# ASSAY INFO: Inhibition of RNase H activity of HIV-1 reverse transcriptase p66/p51 C280A mutant using 18 nucleotide 3'-fluorescein-labeled RNA/18 nucleotide 5'-dabsyl-labeled DNA hybrid as substrate after 10 mins by fluorescence spectrometric analysis
# Set-up: species or system Human immunodeficiency virus 1
OBSERVED PROPERTY: IC50 (µM)
Numbers only; they are read as µM.

The compound identified as O=c1[nH]c(-c2ccc(O)c(O)c2)nc2sc3c(c12)CCC3 registered its IC50 at 0.26

The recorded IC50 for CCCc1c(C)sc2nc(-c3cccc(O)c3O)[nH]c(=O)c12 is 2.9

For reference, reported IC50 for Cc1sc2nc(-c3ccc(O)c(O)c3)[nH]c(=O)c2c1C stands at 0.32

IC50 reported for this compound O=c1[nH]c(-c2ccc(O)c(O)c2)nc2sc3c(c12)CCCCC3 : 0.26

Query O=c1[nH]c(-c2ccc(C(F)(F)F)cc2)nc2sc3c(c12)CCCCC3 yields IC50 of 10.6

* * *

# ASSAY INFO: Inhibition of RNase H activity of HIV-1 reverse transcriptase p66/p51 T286A mutant using 18 nucleotide 3'-fluorescein-labeled RNA/18 nucleotide 5'-dabsyl-labeled DNA hybrid as substrate after 10 mins by fluorescence spectrometric analysis
# Design: species or system Human immunodeficiency virus 1
Would you mind telling me the reported pIC50 of each entry?
pIC50 (log units): -log10 of the concentration in mol/L.

The measured pIC50 associated with CCCc1c(C)sc2nc(-c3ccc(O)c(O)c3)[nH]c(=O)c12 reads 6.24

pIC50 for Cc1sc2nc(-c3ccc(O)cc3)[nH]c(=O)c2c1C is 5.43

Recorded pIC50 (compound O=c1[nH]c(-c2ccc(O)c(O)c2)nc2sc3c(c12)CCC3 ): 6.43

compound O=c1[nH]c(-c2ccc(C(F)(F)F)cc2)nc2sc3c(c12)CCCCC3 , pIC50 observed: 5.14

Entry Cc1sc2nc(-c3ccc(C(F)(F)F)cc3)[nH]c(=O)c2c1C — recorded pIC50 = 5.12

Note to self: pIC50 recorded for Cc1sc2nc(-c3ccc(O)c(O)c3)[nH]c(=O)c2c1C was 6.55

Looking up CCCc1c(CC)sc2nc(-c3ccc(O)c(O)c3)[nH]c(=O)c12 , I see its pIC50 listed as 6.09

pIC50 measured on O=C(O)c1ccc(-c2nc3sc4c(c3c(=O)[nH]2)CCCCC4)cc1 = 4.49

For reference, reported pIC50 for O=c1[nH]c(-c2ccc(O)c(O)c2)nc2sc3c(c12)CCCC3 stands at 6.34

The compound O=c1[nH]c(-c2ccc(O)c(O)c2)nc2sc3c(c12)CCCCCC3 showed pIC50 equal to 6.54

// pIC50 lookup, compound = O=c1[nH]c(-c2ccc(O)c(O)c2)nc2sc3c(c12)CCCCC3 , result: 6.44

Sample CCCCc1c(C)sc2nc(-c3ccc(O)c(O)c3)[nH]c(=O)c12 ; pIC50 observed: 5.96

CCCc1c(C)sc2nc(-c3cccc(O)c3O)[nH]c(=O)c12 yielded pIC50 of 5.24

Briefly, pIC50 measured for O=c1[nH]c(-c2cccc(O)c2O)nc2sc3c(c12)CCCCC3 : 5.44

The recorded pIC50 for entry Cc1sc2nc(-c3cc4ccccc4[nH]3)[nH]c(=O)c2c1C equals 6.02

Briefly, pIC50 measured for O=c1[nH]c(-c2ccccc2)nc2sc3c(c12)CCCCC3 : 4.55

For this compound ( O=c1[nH]c(-c2ccc(O)cc2)nc2sc3c(c12)CCCCC3 ), measured pIC50 is 5.18
